Values compiled from the supplement of paper PMC7125110.

// reported self-cleavage kobs at 160 uM GlcN6P for each item listed
B1: glmS ribozyme (parent)
chain: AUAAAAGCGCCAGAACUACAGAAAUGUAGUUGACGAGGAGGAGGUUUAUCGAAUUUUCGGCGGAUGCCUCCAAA

Variants of: B1
Assay: self-cleavage kobs at 160 uM GlcN6P; higher = faster cleavage; RNA array
Conditions: with glucosamine-6-phosphate
Variants at the floor of the assay were thinned out.

>  <mutant code>
C16G U57C

>  <self-cleavage kobs at 160 uM GlcN6P>
< 1e-05 s⁻¹

$$$$
>  <mutant code>
G32C G38A C50G

>  <self-cleavage kobs at 160 uM GlcN6P>
0.000156 s⁻¹

$$$$
>  <mutant code>
C10A U54G C71G

>  <self-cleavage kobs at 160 uM GlcN6P>
9.72e-05 s⁻¹

$$$$
>  <mutant code>
U55A C70A

>  <self-cleavage kobs at 160 uM GlcN6P>
8.57e-05 s⁻¹

$$$$
>  <mutant code>
A6C G35A

>  <self-cleavage kobs at 160 uM GlcN6P>
< 1e-05 s⁻¹

$$$$
>  <mutant code>
G7A A33C A42C A48C

>  <self-cleavage kobs at 160 uM GlcN6P>
< 1e-05 s⁻¹

$$$$
>  <mutant code>
A33C U57G

>  <self-cleavage kobs at 160 uM GlcN6P>
< 1e-05 s⁻¹

$$$$
>  <mutant code>
A36G U49A

>  <self-cleavage kobs at 160 uM GlcN6P>
< 1e-05 s⁻¹

$$$$
>  <mutant code>
C11U G41C

>  <self-cleavage kobs at 160 uM GlcN6P>
< 1e-05 s⁻¹

$$$$
>  <mutant code>
G38U A42U G62U

>  <self-cleavage kobs at 160 uM GlcN6P>
< 1e-05 s⁻¹

$$$$
>  <mutant code>
C10A G43U

>  <self-cleavage kobs at 160 uM GlcN6P>
< 1e-05 s⁻¹

$$$$
>  <mutant code>
C8G G38A

>  <self-cleavage kobs at 160 uM GlcN6P>
< 1e-05 s⁻¹

$$$$
>  <mutant code>
U30A

>  <self-cleavage kobs at 160 uM GlcN6P>
0.000758 s⁻¹

$$$$
>  <mutant code>
A14C G66A C71U

>  <self-cleavage kobs at 160 uM GlcN6P>
0.000171 s⁻¹

$$$$
>  <mutant code>
A48U G63U

>  <self-cleavage kobs at 160 uM GlcN6P>
< 1e-05 s⁻¹

$$$$
>  <mutant code>
C10A C50G U65G

>  <self-cleavage kobs at 160 uM GlcN6P>
0.000143 s⁻¹

$$$$
>  <mutant code>
U31G U45A

>  <self-cleavage kobs at 160 uM GlcN6P>
0.00206 s⁻¹

$$$$
>  <mutant code>
G9U C10G

>  <self-cleavage kobs at 160 uM GlcN6P>
< 1e-05 s⁻¹

$$$$
>  <mutant code>
G13C G35C

>  <self-cleavage kobs at 160 uM GlcN6P>
< 1e-05 s⁻¹

$$$$
>  <mutant code>
U49C C58U

>  <self-cleavage kobs at 160 uM GlcN6P>
< 1e-05 s⁻¹

$$$$
>  <mutant code>
G60C U65G

>  <self-cleavage kobs at 160 uM GlcN6P>
< 1e-05 s⁻¹

$$$$
>  <mutant code>
G9A G62U

>  <self-cleavage kobs at 160 uM GlcN6P>
< 1e-05 s⁻¹

$$$$
